Source of measurements: PubChem BioAssay (NCI)

- System: MALME-3M melanoma
- measurement_description: NCI-60 one-dose screen, 48 h
- details: 10 µM
The panel holds about 83,000 compounds, 20% with a hit somewhere; the sample as a whole holds those more often. Active and inactive are the calls of the source. The calls were made as follows: active = growth percent below 10; inactive = the rest.
Answer with one of the outcomes active, inactive

Worked cases, answers included:
O=C(c1ccc([N+](=O)[O-])c([N+](=O)[O-])c1O)n1[nH]c(=O)c2ccccc2c1=O; inactive
COc1ccc(C2NC(=S)NC(C)=C2C(=O)OC(C)C)cc1OC (centres undefined); inactive
Cc1cc2c(c(O)c1Br)-c1ncoc1C(=O)[C@]1(C)CC[C@H](C(C)C)[C@H]21; inactive
Brc1ccc(N/N=C/c2c[nH]c3ccccc23)nc1; inactive
COc1ccc(CN2[C@@H](C(=O)NCc3ccc(C(=O)NO)cc3)Cc3c([nH]c4ccccc34)[C@@H]2C)cc1; active

Exercise: # lookup: test call for O=C(Nc1nc2ccccc2s1)c1ccc(Br)cc1
Key: inactive

Exercise: Could you please tell me the result logged for CCOP(=O)(OCC)O[C@H]1CCC(=O)[C@@H]2[C@H]1[C@H]1C[C@@H]3[C@@]4(C)CCCC(C)(C(=O)OC)[C@@H]4CC[C@@]23C=C1C(C)C (some centres undefined) in this assay?
Key: inactive

Exercise: Tell me the assay call for CN1CCN(c2ccc(Nc3nc(NCCCNC(=O)c4ccccc4)c4sccc4n3)cc2)CC1 please.
Key: inactive

Exercise: Lab log entry: CN1CCCN(Cc2ccc(C(=O)Nc3cccc(Nc4ccc5cc(O)ccc5n4)c3)cc2C(F)(F)F)CC1 — outcome as called in the assay?
Key: inactive

----------
Answer each item with its documented growth.
- Tested on: OVCAR-8 ovarian
- measurement_description: NCI-60 one-dose screen, 48 h (100 = growth as untreated, 0 = no growth, -100 = all killed)
- details: 10 µM
This is part of a sample that, as a whole, favours compounds with a hit. Of some 83,000 tested, about 20% had one in any assay.
Give bare numbers, in %.

CC1(C)[C@@H](NCO)CC[C@]2(C)[C@H]3C(=O)C=C4[C@@H]5C[C@](C)(CO)CC[C@]5(C)CC[C@@]4(C)[C@]3(C)CC[C@@H]12; 70.9
O=c1oc2ccc(-c3ccc(F)cc3F)cc2c(=O)n1-c1ccc(F)cc1; 14.7
O=C(Nc1cccc(-c2cn(-c3ccc4oc(=O)ccc4c3)nn2)c1)Nc1cc(C(F)(F)F)cc(C(F)(F)F)c1; 34.6
O=C1N/C(=N\c2nccs2)S/C1=C\c1cccs1; 31.3

Here is the next item to consider.
The recorded growth for O/N=C(\CSc1nnc(-c2c[nH]c3ccccc23)n1-c1ccccc1)c1ccc(Cl)cc1 is 6.37

----------
- System: HOP-92 NSCLC
- measurement_description: NCI-60 one-dose screen, 48 h
- details: 10 µM
The panel holds about 83,000 compounds, 20% with a hit somewhere; the sample as a whole holds those more often. Active and inactive are the calls of the source. How the source made its calls: active means growth percent below 10; inactive means the rest.
Use one of these outcomes when replying: true (active), false (inactive)

O=C(CNc1nc(-c2ccccc2)cs1)Nc1ccc(Cl)cc1[N+](=O)[O-]; true
O=c1c2ccccc2nc(COc2ccccc2)n1/N=C/c1ccc(F)cc1; false
O=c1[nH]c2ccccc2cc1CSc1ccc(Nc2nccc(-c3ccc(C(F)(F)F)cc3)n2)cc1; true
COc1ccc2[nH]c(O)c(N=NC(=O)c3cc(-c4ccc(C)cc4)nc4ccccc34)c2c1; false
COc1ccc(CCN2C(=O)/C(=C/c3csc(C#N)n3)SC2=S)cc1; true

Exercise: Please share the test call associated with Cc1ccc(C(=O)CSc2nnc(-c3c[nH]c4ccccc34)n2-c2ccccc2)cc1 .
Key: true

Exercise: What outcome does the record of this test show for C=C(c1ccc(OC)c(N)c1)c1cc(C)nc2ccccc12 ?
Key: false

Exercise: Answer briefly: the call reported for CC(=O)c1ccc(Nc2nc(SCCC(C)C)nc(-c3ccc(F)cc3)c2C#N)cc1 in this assay.
Key: true

Exercise: Could you kindly confirm the outcome this assay logged for Cc1ccc(C(=O)NCCCNc2nc(Nc3ccc(N4CCN(C)CC4)cc3)nc3ccsc23)cc1 ?
Key: false

Exercise: What call does the record list for O=C(NO)c1ccc(Cn2ccc3c(NCc4ccccc4)ncnc32)cc1 ?
Key: true

----------
- Test system: T-47D breast
- measurement_description: NCI-60 one-dose screen, 48 h (100 = growth as untreated, 0 = no growth, -100 = all killed)
- details: 10 µM
Compounds without any hit were thinned out: in the full panel of roughly 83,000, 20% have a hit.
recorded_metric: growth (%)
One number for each entry, in %.

C[C@H]1[C@H](C)CC[C@]2(COC(=O)CCC(=O)NCC#CCN3CCNCC3)CC[C@]3(C)C(=CC[C@@H]4[C@@]5(C)CCCNC(C)(C)[C@@H]5CC[C@]43C)[C@H]12; 40
C=C1CCC2C3(C)COC(c4cccc(F)c4)OC3CCC2(C)C1CC(O)C1=CCOC1=O (stereo not drawn); 37.9
CCN1CCN(c2ccc(NC(=O)Nc3ccc(-c4cc(C(=O)NC)c5ncccc5n4)cc3)cc2C(F)(F)F)CC1; 49.4
Cc1ccc(S(=O)(=O)c2nc(-c3ccccc3)oc2S(=O)(=O)CC(=O)N2CCCC2)cc1; -70.4

Could you tell me growth for each of these compounds? They are listed below.
1. COc1ccc(C(=O)/C=C/c2cc(C(F)(F)F)cc(C(F)(F)F)c2)cc1S(N)(=O)=O
2. Cc1ccn2c(C(=O)c3ccc(Br)cc3)cc(-c3cc(-c4ccc(N(C)C)cc4)c(C#N)c(N)n3)c2c1

Key:
[-59.8, 50.5]

# per-item lookup of growth; items listed below
1. Cc1ccc2nc(-c3ccc(-c4nnc(SCC(=O)Nc5ccc(Cl)cc5)o4)cc3)[nH]c2c1
2. CCC(C)S(=O)(=O)c1oc(-c2ccc(C)cc2)nc1S(=O)(=O)c1ccccc1 (stereo not drawn)
3. O=C1NC(=NC2CCCCCC2)N/C1=C\c1ccc2ncoc2c1
4. COc1ccc(C(=O)/C=C/c2cc(F)cc(C(F)(F)F)c2)cc1S(N)(=O)=O
5. O=C(NO)c1ccc(Cn2ccc3c(Nc4ccccc4)ncnc32)cc1
6. O=C(CSc1nnc(-c2c[nH]c3ccccc23)n1-c1ccccc1)c1ccc(Br)cc1
7. O=C(COc1ccc(NC(=O)Nc2ccc(Cl)cc2)cc1)N=Nc1c(O)[nH]c2ccc([N+](=O)[O-])cc12
8. CN1CCO/C1=C(/NC(=O)c1ccc(Cl)cc1)[P+](c1ccccc1)(c1ccccc1)c1ccccc1

Key:
1. 65.1
2. -73.5
3. 18.9
4. 6.93
5. -8.19
6. 22
7. 7.65
8. 66

----------
- Tested on: 786-0 renal
- measurement_description: NCI-60 one-dose screen, 48 h (100 = growth as untreated, 0 = no growth, -100 = all killed)
- details: 10 µM
This is part of a sample that, as a whole, favours compounds with a hit. Of some 83,000 tested, about 20% had one in any assay.
# strict inequality: growth < 90% yields t, everything else yields f

N#C/C(=C\c1ccc(N(c2ccccc2)c2ccccc2)cc1)C(N)=O; t
COc1cc2c(cc1OC)/C(=C\c1sc(Nc3ccc(O)cc3)nc1O)C(C(=O)O)=N2; t
Nc1nc(Nc2ccc(Cl)cc2)nn1Cc1cccc(Br)c1; t
Cc1ccc(-c2nc3ccc(C(=O)N=Nc4c(O)[nH]c5ccc([N+](=O)[O-])cc45)cc3[nH]2)cc1; t
CN1C(=O)/C(=C/c2nccs2)SC1=S; f

Exercise: Given CC(C)CCSc1nc(NC2CC2)c(C#N)c(-c2ccc(C(C)C)cc2)n1 , is recorded growth strictly lower than 90%?
Key: f

Exercise: Lab note: growth threshold 90%. Does this compound come in strictly under it? COc1cccc(C(N)=Nc2ccc(OCCCCCCn3cncn3)cc2)c1
Key: t

Exercise: Problem: For the compound CC(C)Sc1nc(NC2CC2)c(C#N)c(-c2ccccc2)n1 , is growth under 90%?
Key: t

Exercise: Hello, I'm reviewing records and need to know if growth of O=C1Nc2ccc(Cl)cc2/C1=C/c1ccc(OCc2ccc(Br)cc2F)cc1 is below 90%. Could you check?
Key: t

----------
- Tested on: IGROV1 ovarian
- measurement_description: NCI-60 one-dose screen, 48 h (100 = growth as untreated, 0 = no growth, -100 = all killed)
- details: 10 µM
The panel holds about 83,000 compounds, 20% with a hit somewhere; the sample as a whole holds those more often.
recorded_metric: growth (%)
Numbers only, in %.

COc1cccc(-c2ccc(/C=N/NC(=O)c3[nH]c4ccc(Br)cc4c3-c3ccccc3)o2)c1; 32.6
O=C(Nc1ccc(OCc2ccccc2)cc1)Nc1ccc(Cl)c(C(F)(F)F)c1; 19
COc1cccc(C(N)=Nc2ccc(OCCCCCCn3cncn3)cc2)c1; 31.4
CN1CCN(c2ccc(Nc3nc(NCCCNC(=O)c4ccc(Cl)cc4)c4sccc4n3)cc2)CC1; 88.3

Switching to the query record.
growth measured on O=c1[nH]c2ccccc2cc1CSc1ccc(Nc2nccc(-c3ccc(Cl)cc3)n2)cc1 = 11
